# % S annotations
Tested on: Staphylococcus saprophyticus
protocol-text: MIC, CLSI broth microdilution, clinical isolates
Assay type: cell-based
condition: Staphylococcus saprophyticus (N = 101)
# value in %; strip the unit string

Please review the following examples before continuing.
compound: Cc1onc(-c2ccccc2)c1C(=O)N[C@@H]1C(=O)N2[C@@H]1SC(C)(C)[C@@H]2C(=O)O
quantity-name: % S
unit-tag: %
recorded-measurement: 9.9
//
compound: NC[C@H]1O[C@H](O[C@H]2[C@H](O)[C@@H](O[C@H]3O[C@H](CO)[C@@H](O)[C@H](N)[C@H]3O)[C@H](N)C[C@@H]2N)[C@H](N)C[C@@H]1O
quantity-name: % S
unit-tag: %
recorded-measurement: 99.0
//
compound: C[C@H]1COc2c(N3CCN(C)CC3)c(F)cc3c(=O)c(C(=O)O)cn1c23
quantity-name: % S
unit-tag: %
recorded-measurement: 100.0

Which value of % S has been reported for COc1c(N2CCNC(C)C2)c(F)cc2c(=O)c(C(=O)O)cn(C3CC3)c12 (centres unmarked) in the records?
100.0

Report % S for "CC[C@H]1OC(=O)[C@H](C)[C@@H](O[C@H]2C[C@@](C)(OC)[C@@H](O)[C@H](C)O2)[C@H](C)[C@@H](O[C@@H]2O[C@H](C)C[C@H](N(C)C)[C@H]2O)[C@](C)(O)C[C@@H](C)CN(C)[C@H](C)[C@@H](O)[C@]1(C)O" please.
54.5

----------
System: S. pneumoniae
protocol-text: MIC of clinical trial isolates, Studies 373, 433, 434
Assay type: cell-based
condition: Streptococcus pneumoniae, all phenotypes, N 302
MIC90 listing for selected compounds.

compound: CC[C@H]1OC(=O)[C@H](C)[C@@H](O[C@H]2C[C@@](C)(OC)[C@@H](O)[C@H](C)O2)[C@H](C)[C@@H](O[C@@H]2O[C@H](C)C[C@H](N(C)C)[C@H]2O)[C@](C)(O)C[C@@H](C)CN(C)[C@H](C)[C@@H](O)[C@]1(C)O [AZITH]
test-system: S. pneumoniae
recorded-measurement: >8 µg/mL
--
compound: COc1c(N2CCNC(C)C2)c(F)cc2c(=O)c(C(=O)O)cn(C3CC3)c12 (centres unmarked) [GATI]
test-system: S. pneumoniae
recorded-measurement: 0.5 µg/mL
--
compound: CC1COc2c(N3CCN(C)CC3)c(F)cc3c(=O)c(C(=O)O)cn1c23 (centres unmarked) [OFLOX]
test-system: S. pneumoniae
recorded-measurement: 2 µg/mL
--
compound: C[C@H]1COc2c(N3CCN(C)CC3)c(F)cc3c(=O)c(C(=O)O)cn1c23 [LEVO]
test-system: S. pneumoniae
recorded-measurement: 1 µg/mL

# get_value(readout='MIC90', item= N[C@@H]1CCCCN(c2c(F)cc3c(=O)c(C(=O)O)cn(C4CC4)c3c2Cl)C1 [BESI] )
0.125 µg/mL

----------
System: Staphylococcus epidermidis
protocol-text: MIC, CLSI broth microdilution, clinical isolates
Type: cell-based
condition: Staphylococcus epidermidis, MRSE, Staphylococcus epidermidis (MRSE, N = 9)
quantity-name: MIC50 (µg/mL)
Form entry: value (µg/mL) — number only.

Past entries and their recorded results:
molecule: Cc1onc(-c2ccccc2)c1C(=O)N[C@@H]1C(=O)N2[C@@H]1SC(C)(C)[C@@H]2C(=O)O
recorded-measurement: 1
//
molecule: COc1c(N2CCNC(C)C2)c(F)cc2c(=O)c(C(=O)O)cn(C3CC3)c12 (stereo not drawn)
recorded-measurement: 1
//
molecule: C[C@H]1COc2c(N3CCN(C)CC3)c(F)cc3c(=O)c(C(=O)O)cn1c23
recorded-measurement: 2
//
molecule: NC[C@H]1O[C@H](O[C@H]2[C@H](O)[C@@H](O[C@H]3O[C@H](CO)[C@@H](O)[C@H](N)[C@H]3O)[C@H](N)C[C@@H]2N)[C@H](N)C[C@@H]1O
recorded-measurement: 4

// map "N[C@@H]1CCCCN(c2c(F)cc3c(=O)c(C(=O)O)cn(C4CC4)c3c2Cl)C1" to recorded MIC50 (system: Staphylococcus epidermidis)
0.25

----------
Listed compounds paired with reported % S
Tested on: Citrobacter koseri
protocol-text: MIC, CLSI broth microdilution, clinical isolates
Assay type: cell-based
condition: Citrobacter koseri (N = 100)
Numbers only here, please. The scale is %.

Need % S, item "NC[C@H]1O[C@H](O[C@H]2[C@H](O)[C@@H](O[C@H]3O[C@H](CO)[C@@H](O)[C@H](N)[C@H]3O)[C@H](N)C[C@@H]2N)[C@H](N)C[C@@H]1O"
99.0

Which % S reading was recorded for the compound "CC(C)(O/N=C(\C(=O)N[C@@H]1C(=O)N2C(C(=O)[O-])=C(C[n+]3ccccc3)CS[C@H]12)c1csc(N)n1)C(=O)O" ?
100.0

Name the recorded % S for "C[C@H]1COc2c(N3CCN(C)CC3)c(F)cc3c(=O)c(C(=O)O)cn1c23" .
99.0

Using the record for COc1c(N2CCNC(C)C2)c(F)cc2c(=O)c(C(=O)O)cn(C3CC3)c12 (stereo not shown) , report its % S.
99.0

----------
Each record here notes measured MIC90.
Test system: S. aureus
protocol-text: MIC of clinical trial isolates, Studies 373, 433, 434
Type: cell-based
condition: Staphylococcus aureus, all phenotypes, N 190
// units = µg/mL; emit number, no label

compound: COc1c(N2CCNC(C)C2)c(F)cc2c(=O)c(C(=O)O)cn(C3CC3)c12 (centres unmarked)
unit-tag: µg/mL
recorded-measurement: 4

# returns recorded MIC90 (system: S. aureus) for "C[C@H]1COc2c(N3CCN(C)CC3)c(F)cc3c(=O)c(C(=O)O)cn1c23"
8

Please provide the recorded MIC90 for "N[C@@H]1CCCCN(c2c(F)cc3c(=O)c(C(=O)O)cn(C4CC4)c3c2Cl)C1" , tested on S. aureus.
0.5

----------
Test system: Legionella pneumophila
protocol-text: microbe, parasite or virus in culture
Assay type: cell-based
condition: Legionella pneumophila
MIC50 values by entry
Form entry: value (µg/mL) — number only.

Study these solved cases before continuing.
compound: COc1c(N2C[C@@H]3CCCN[C@@H]3C2)c(F)cc2c(=O)c(C(=O)O)cn(C3CC3)c12
unit-tag: µg/mL
MIC50: 0.03
--
compound: CC[C@H]1OC(=O)[C@H](C)[C@@H](O[C@H]2C[C@@](C)(OC)[C@@H](O)[C@H](C)O2)[C@H](C)[C@@H](O[C@@H]2O[C@H](C)C[C@H](N(C)C)[C@H]2O)[C@](C)(O)C[C@@H](C)CN(C)[C@H](C)[C@@H](O)[C@]1(C)O
unit-tag: µg/mL
MIC50: 0.12

Which MIC50 value belongs to "NC[C@H]1O[C@H](O[C@H]2[C@H](O)[C@@H](O[C@H]3O[C@H](CO)[C@@H](O)[C@H](N)[C@H]3O)[C@H](N)C[C@@H]2N)[C@H](N)C[C@@H]1O" ?
1

Looking for the measured MIC50 of "N[C@@H]1CCCCN(c2c(F)cc3c(=O)c(C(=O)O)cn(C4CC4)c3c2Cl)C1" , can you help?
0.03

For the compound COc1c(N2CCNC(C)C2)c(F)cc2c(=O)c(C(=O)O)cn(C3CC3)c12 (stereo not drawn) , what MIC50 is on record?
0.03

Param item = "C[C@H]1COc2c(N3CCN(C)CC3)c(F)cc3c(=O)c(C(=O)O)cn1c23" ; retrieve measured MIC50.
0.03

----------
Entries and their measured MIC90 follow.
Test system: Citrobacter koseri
protocol-text: MIC, CLSI broth microdilution, clinical isolates
Assay type: cell-based
condition: Citrobacter koseri (N = 100)
Respond with the bare value in µg/mL.

compound: N[C@@H]1CCCCN(c2c(F)cc3c(=O)c(C(=O)O)cn(C4CC4)c3c2Cl)C1 [Besifloxacin]
test-system: Citrobacter koseri
MIC90 [µg/mL]: 0.25
--
compound: COc1c(N2CCNC(C)C2)c(F)cc2c(=O)c(C(=O)O)cn(C3CC3)c12 (stereo not drawn) [Gatifloxacin]
test-system: Citrobacter koseri
MIC90 [µg/mL]: 0.12
--
compound: NC[C@H]1O[C@H](O[C@H]2[C@H](O)[C@@H](O[C@H]3O[C@H](CO)[C@@H](O)[C@H](N)[C@H]3O)[C@H](N)C[C@@H]2N)[C@H](N)C[C@@H]1O [Tobramycin]
test-system: Citrobacter koseri
MIC90 [µg/mL]: 1
--
compound: CC(C)(O/N=C(\C(=O)N[C@@H]1C(=O)N2C(C(=O)[O-])=C(C[n+]3ccccc3)CS[C@H]12)c1csc(N)n1)C(=O)O [Ceftazidime]
test-system: Citrobacter koseri
MIC90 [µg/mL]: 0.5

As a next step, examine the compound that follows.
Returns the measured MIC90 for the input compound. Input: C[C@H]1COc2c(N3CCN(C)CC3)c(F)cc3c(=O)c(C(=O)O)cn1c23 [Levofloxacin]
0.12

Origin of measurements: patent US8415342B2
